- Measured On: human ether-à-go-go-related gene (hERG) potassium channel (human, UniProt Q12809)
- Sequence (Q12809 whole entry, looked up): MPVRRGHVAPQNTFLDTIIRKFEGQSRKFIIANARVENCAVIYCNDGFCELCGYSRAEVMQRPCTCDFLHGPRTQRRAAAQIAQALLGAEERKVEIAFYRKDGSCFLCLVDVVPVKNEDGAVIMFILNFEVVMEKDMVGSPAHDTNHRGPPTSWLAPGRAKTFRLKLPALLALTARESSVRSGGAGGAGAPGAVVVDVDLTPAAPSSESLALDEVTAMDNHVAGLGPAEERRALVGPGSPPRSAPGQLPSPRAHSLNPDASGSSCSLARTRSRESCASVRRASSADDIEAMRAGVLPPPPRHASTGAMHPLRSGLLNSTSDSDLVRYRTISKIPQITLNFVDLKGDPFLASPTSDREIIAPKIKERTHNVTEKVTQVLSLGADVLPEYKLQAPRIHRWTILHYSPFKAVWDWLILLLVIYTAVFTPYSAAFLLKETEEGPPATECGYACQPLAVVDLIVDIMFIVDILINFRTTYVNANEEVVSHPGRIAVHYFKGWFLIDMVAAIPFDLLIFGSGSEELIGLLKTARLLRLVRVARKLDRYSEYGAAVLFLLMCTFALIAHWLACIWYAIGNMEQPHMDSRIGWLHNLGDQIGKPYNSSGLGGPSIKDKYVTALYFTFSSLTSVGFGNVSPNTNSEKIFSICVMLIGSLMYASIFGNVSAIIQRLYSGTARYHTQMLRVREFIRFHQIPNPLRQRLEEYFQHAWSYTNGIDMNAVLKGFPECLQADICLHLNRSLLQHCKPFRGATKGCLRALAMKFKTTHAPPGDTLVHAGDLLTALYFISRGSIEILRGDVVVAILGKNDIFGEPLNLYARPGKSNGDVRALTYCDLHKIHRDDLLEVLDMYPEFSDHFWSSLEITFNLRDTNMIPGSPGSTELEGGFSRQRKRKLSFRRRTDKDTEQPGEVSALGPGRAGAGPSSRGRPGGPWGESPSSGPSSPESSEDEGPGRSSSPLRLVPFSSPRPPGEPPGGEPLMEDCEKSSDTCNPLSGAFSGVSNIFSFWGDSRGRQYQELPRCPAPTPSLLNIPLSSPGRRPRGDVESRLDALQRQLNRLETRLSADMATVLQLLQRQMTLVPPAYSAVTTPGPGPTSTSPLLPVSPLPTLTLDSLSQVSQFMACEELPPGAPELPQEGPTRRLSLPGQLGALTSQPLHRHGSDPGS
- Assay Notes: primary screen, population patch clamp on CHO cells stably expressing hERG; higher = less effect of the substance
Out of some 310,000 compounds screened, about 2,200 (0.71%) showed an effect of 50% or more. The effect is printed as a negative number. Many of the other results were omitted from the sample, so strong results are more common in it than they were.
Property Measured: hERG current change (%, negative = inhibition) at 1uM (%)

1) CC[C@H]1CN(C)C[C@@]2(C(=O)OC)Cc3c([nH]c4ccccc34)C(=O)C[C@@H]12 : 10.5
2) CC(=O)c1ccc(N2CCCCCC2)c(F)c1 : 0.156
3) COc1cc2c(cc1OC)C(=O)Cc1ccc3c(c1CN(C)CC2)OCO3 : -39.4
4) COc1ccc(C(=O)CSc2nnc(-c3cc4ccccc4cc3O)n2Cc2ccco2)cc1 : -16.2
5) COCCOc1nc2ccccc2nc1C : 6.8

---

Measured hERG current change (%, negative = inhibition) at 1uM of individual entries
- Measured On: human ether-à-go-go-related gene (hERG) potassium channel (human)
- Assay Notes: primary screen, population patch clamp on CHO cells stably expressing hERG; higher = less effect of the substance
The campaign covered roughly 310,000 compounds. About 2,200 (0.71%) showed an effect of 50% or more. Effects have a minus sign here. The entries come from a sample that favours strong results as a whole.
Property Measured: hERG current change (%, negative = inhibition) at 1uM (%)

1) O=C(Nc1ccccc1N1CCN(C(=O)c2ccc(Cl)cc2)CC1)c1cccc(F)c1 : -81.2
2) O=C(Nc1ccccc1N1CCN(C(=O)c2ccccc2)CC1)c1ccc(Cl)cc1 : -7.21
3) Cc1ccc(N2CC(C(=O)N3CCc4ccccc4C3)CC2=O)cc1 (stereo not shown) : -17.7
4) O=S(=O)(CCc1nnc(-c2ccc(Br)cc2)o1)c1ccc(Cl)cc1 : 6.04
5) O=C(Nc1ccccc1N1CCN(C(=O)c2ccc(Cl)cc2)CC1)c1cccnc1 : -77
6) Cc1cc(C)n2c(SCC(=O)NC3CCCC(C)C3C)nnc2n1 (stereo not shown) : 12.4
7) O=C(Nc1ccccc1N1CCN(C(=O)c2ccc(Cl)cc2)CC1)c1cccc([N+](=O)[O-])c1 : -65.2
8) O=C(Nc1ccccc1N1CCN(C(=O)c2ccc(Cl)cc2)CC1)c1ccc(Br)cc1 : -4.26
9) CS(=O)(=O)Nc1ccc(C(=O)N2CCN(c3ccccc3F)CC2)cc1 : -69.2
10) COc1ccc(CCn2c(=N)c(C(=O)NCC3CCCO3)cc3c(=O)n4ccccc4nc32)cc1 (stereo not shown) : -84.4
11) COc1ccccc1NS(=O)(=O)c1ccc(C)c(C(=O)NCC2CCCO2)c1 (stereo not shown) : -14.5
12) COc1ccc(CCn2c(=N)c(C(=O)NCC3CCCO3)cc3c(=O)n4ccccc4nc32)cc1OC (stereo not shown) : -79.9
13) Cc1[nH]nc2c1C(C(C)c1ccccc1)C(C#N)=C(N)O2 (stereo not shown) : 7.79
14) O=C(c1ccccc1)N1CCN(c2ccccc2F)CC1 : 9.77
15) Cc1cccc(C(=O)NCC(=O)NC2CCC(C)CC2)c1 (stereo not shown) : 1.64
16) O=C(Nc1ccccc1N1CCN(C(=O)c2ccccc2)CC1)c1cccc(Cl)c1 : -12.6
17) CCOc1ccc(N2CC(C(=O)N3CCc4ccccc43)CC2=O)cc1 (stereo not shown) : -8.82
18) COc1ccc2c(CCNC(=O)c3ccc([N+](=O)[O-])cc3)c[nH]c2c1 : 12.8
19) COc1ccc(/C=C/c2cc(-c3ccc(C)cc3)o[n+]2C)cc1.F[B-](F)(F)F : -76.5

---

- Measured On: human ether-à-go-go-related gene (hERG) potassium channel (human)
- Assay Notes: primary screen, population patch clamp on CHO cells stably expressing hERG; higher = less effect of the substance
The whole screen tested about 310,000 compounds, of which about 2,200 (0.71%) showed an effect of 50% or more. The effect is printed as a negative number. What follows is part of a selection rich in strong results, with near analogues and random picks from the rest.
Property Measured: hERG current change (%, negative = inhibition) at 1uM (%)

1. CCc1ccc(NC(=O)c2cnc3scc(C)n3c2=O)cc1 : 4.58
2. CSC1=NC2(CC(c3ccccc3)Oc3cc(O)ccc32)CC(C)(C)N1 (centres unmarked) : -68.8
3. CCN1CCc2nc3ccccc3c(C(=O)Nc3ccc(F)cc3)c2C1 : -81.6
4. CCN1CCc2nc3ccccc3c(C(=O)Nc3ccc(NC(C)=O)cc3)c2C1 : 12.4
5. CCOC(=O)c1c(C)nc2ncccn12 : 2.38

---

- Measured On: human ether-à-go-go-related gene (hERG) potassium channel (human, UniProt Q12809)
- Assay Notes: primary screen, population patch clamp on CHO cells stably expressing hERG; higher = less effect of the substance
The campaign covered roughly 310,000 compounds. About 2,200 (0.71%) showed an effect of 50% or more. Effects have a minus sign here. The list comes from a sample in which strong results are over-represented; it also holds close analogues and randomly drawn compounds.
Measured hERG current change (%, negative = inhibition) at 1uM of individual entries
Property Measured: hERG current change (%, negative = inhibition) at 1uM (%)

1) Cc1ccc(NC(=S)NNC(=O)C2CC2c2ccc(C)cc2)cc1 (centres unmarked) : -10.4
2) CCOC(=O)C1(CCc2ccccc2)CCN(Cc2ccccn2)CC1 : -57.1
3) CN(Cc1cnn(C)c1)C(=O)c1ccc(OC2CCN(CCc3ccccc3)CC2)cc1 : -8.79
4) CCOC(=O)C1(CC2CC2)CCN(Cc2cnc(N(C)C)s2)CC1 : 3.01
5) CCN1CCN(c2oc(COc3ccc(Cl)cc3)nc2C#N)CC1 : -79.3
6) Cc1cc(CN(C)C(=O)c2ccc(OC3CCN(Cc4ccccn4)CC3)cc2)on1 : -2.96
7) Cc1ccc2c(CN3CC(C)CC(C)C3)cc(=O)oc2c1C (centres unmarked) : 9.29
8) O=C(COC(=O)c1nc(Cl)ccc1Cl)Nc1ncc(Cl)cc1Cl : 14.4
9) CCOC(=O)C1(Cc2ccccc2)CCN(Cc2cccc3c2OCO3)CC1 : 1.36
10) CC(C)(C)c1ccc(OC(=O)c2ccc(-n3cncn3)nc2)cc1 : 10.9
11) O=C(CSc1nnc(COc2ccc(Cl)cc2)o1)NC1CCCCC1 : -2.69
12) CCOC(=O)C1(CCc2ccccc2)CCN(Cc2nccn2CC)CC1 : -47.2
13) O=C(NCc1ccon1)c1ccc(OC2CCN(CCc3ccccc3)CC2)cc1 : -26
14) N#Cc1nc(COc2ccc(Cl)cc2)oc1N1CCCC1 : -2.53
15) N#Cc1nc(COc2ccccc2)oc1N1CCN(Cc2ccccc2)CC1 : -3.01
16) CCOC(=O)C1(CCc2ccccc2)CCN(Cc2ccn[nH]2)CC1 : -43.8
17) CCOC(=O)C1(CCc2ccccc2)CCN(Cc2cccc3c2OCO3)CC1 : -63.7
18) CCOC(=O)C1(CCOc2ccccc2)CCN(Cc2cccc3c2OCO3)CC1 : -7.1
19) O=C(COC(=O)CCN1C(=O)c2ccccc2C1=O)Nc1ccccc1[N+](=O)[O-] : 16.6
20) Cc1c(O[C@@H]2O[C@H](CO)[C@@H](O)[C@H](O)[C@H]2O)ccc2c1oc(=O)c1ccccc12 : 16.9

---

- Measured On: human ether-à-go-go-related gene (hERG) potassium channel (human, UniProt Q12809)
- Assay Notes: primary screen, population patch clamp on CHO cells stably expressing hERG; higher = less effect of the substance
Among all 310,000 compounds or so, about 2,200 (0.71%) showed an effect of 50% or more. Effects have a minus sign here. This excerpt belongs to a sample that is enriched for strong results.
Measured hERG current change (%, negative = inhibition) at 1uM of individual entries
Property Measured: hERG current change (%, negative = inhibition) at 1uM (%)

1. CNC(=S)N1CCN(c2cccc(OC)c2)CC1 : 7.07
2. COc1ccc(OC)c(NC(=O)C2CCCN(S(=O)(=O)c3ccc(-n4cnnn4)cc3)C2)c1 (stereo not drawn) : 5.12
3. COC(=O)C(C)NC(=S)N1CC2C[C@@H](C1)Cn1c2cccc1=O (stereo partly drawn) : 15.6
4. CCn1c(SCC(=O)Nc2nc(C)c(C)s2)nnc1-c1cccs1 : -62.5
5. CCn1c(SCC(=O)Nc2nc(C)c(C)s2)nnc1-c1ccco1 : -11.2
6. C=CCn1c(SCC(=O)N2CCN(c3ccc(F)cc3)CC2)nnc1-c1cccs1 : -52.4
7. CCn1ncc(NC(=S)NCCc2ccccc2)c1C(N)=O : 2.4
8. Cc1ccc(C(=O)N/C(=C/c2ccco2)C(=O)NCCCn2ccnc2)cc1 : -62.5
9. O=C(NCCCn1ccnc1)/C(=C\c1ccco1)NC(=O)c1ccco1 : -10.8
10. CCN(c1ccc(NC(=O)c2ccc(Cl)nc2)cc1)C(C)C : 12.2
11. CCN1C(=O)C(CC(=O)Nc2ccc(F)cc2)N(CCCN2CCN(c3ccc(F)cc3)CC2)C1=S (stereo not drawn) : 0.806
12. CCOC(=O)C1CCN(C(=O)CCc2c(C)nc3cc(-c4ccc(OC)cc4OC)nn3c2C)CC1 : -10.6
13. O=C(Nc1ccc(-c2nc3ccccc3o2)cc1)c1cc(-n2cnnc2)ccc1Cl : 6.74
14. S=C(c1ccc(-c2ccccc2)cc1)N1CCOCC1 : 7.87
15. O=P(C(Cl)Cl)(N1CCOCC1)N1CCOCC1 : 17.8
16. COc1ccc(CNC(=O)NCc2ccc(OC)c(OC)c2)cc1OC : 17.1
17. O=P(O)(O)C(O)C(F)(F)C(F)(F)C(F)(F)C(F)F (stereo not drawn) : 21.8
18. O=C(CSc1nnnn1-c1ccc2c(c1)OCCO2)OC1CCCCC1 : 6.23
19. Cc1cccc(OCCNC(=O)CCNS(=O)(=O)c2ccc3ccccc3c2)c1 : 6.04
20. O=C(COc1ccccc1Cl)NC(=S)Nc1ccc(CN2CCOCC2)cc1 : 15.7
21. CCCc1n[nH]c2c1/C(=N\OCC)CC(C)(C)C2 : 12.8
